Below, each entry is listed alongside its reported combination Emax.
System: KMRC-1 (Kidney Carcinoma)
Protocol text: combination Emax (second highest fraction inhibited in the dose matrix, 72 h); higher = more inhibition; extreme values may be limits of the assay

# count of solved cases: 2
Query: Which combination Emax value belongs to Cn1cnc2c(F)c(Nc3ccc(Br)cc3Cl)c(C(=O)NOCCO)cc21 [Selumetinib] + CCN(CCO)CCCOc1ccc2c(Nc3cc(CC(=O)Nc4cccc(F)c4)[nH]n3)ncnc2c1 [AZD2811] (first compound max 10 µM, 7x7, partner max 1 µM) ?
Reply: 0.233

Query: Which combination Emax value belongs to COc1nnc2ccc(N3CCC(c4ccc(OCCN5CCN(C)C(=O)[C@H]5C)cc4)CC3)nn12 [AZD5153] + CC1(C)CCC(CN2CCN(c3ccc(C(=O)NS(=O)(=O)c4ccc(NCC5CCOCC5)c([N+](=O)[O-])c4)c(Oc4cnc5[nH]ccc5c4)c3)CC2)=C(c2ccc(Cl)cc2)C1 [Venetoclax] (first compound max 1 µM, 7x7, partner max 1 µM) ?
Reply: 0.263

More entries:
Query: Which combination Emax value belongs to COc1cccc(OCCCN)c1-c1cc(Nc2cnc(C#N)cn2)n[nH]1 [Prexasertib] + CN(C)CCCOc1ccc(-c2ccc3ncc4c(c3c2)n(C2CCOCC2)c(=O)n4C)cn1 [AZD0156] (first compound max 1 µM, 7x7, partner max 1 µM) ?
Reply: 0.558

Query: Which combination Emax value belongs to CN(CCO)CC[C@H](CSc1ccccc1)Nc1ccc(S(=O)(=O)NC(=O)c2ccc(N3CCC([C@@H](O)c4ccccc4-c4ccc(Cl)cc4)CC3)cc2)cc1S(=O)(=O)C(F)(F)F [AZD4320] + CCN(CCO)CCCOc1ccc2c(Nc3cc(CC(=O)Nc4cccc(F)c4)[nH]n3)ncnc2c1 [AZD2811] (first compound max 1 µM, 7x7, partner max 1 µM) ?
Reply: 0.144

---

Test system: Hey (Ovarian Carcinoma)
Protocol text: combination Emax (second highest fraction inhibited in the dose matrix, 72 h); higher = more inhibition; extreme values may be limits of the assay
Observation type: combination Emax
Just the number, please, no unit attached.

# count of solved cases: 3
Query: Which combination Emax value belongs to COc1cccc(OCCCN)c1-c1cc(Nc2cnc(C#N)cn2)n[nH]1 [Prexasertib] + CN(C)CCCOc1ccc(-c2ccc3ncc4c(c3c2)n(C2CCOCC2)c(=O)n4C)cn1 [AZD0156] (first compound max 1 µM, 7x7, partner max 1 µM) ?
Reply: 0.82

Query: Which combination Emax value belongs to CCN(CCO)CCCOc1ccc2c(Nc3cc(CC(=O)Nc4cccc(F)c4)[nH]n3)ncnc2c1 [AZD2811] + O=C(c1cc(Cc2n[nH]c(=O)c3ccccc23)ccc1F)N1CCN(C(=O)C2CC2)CC1 [Olaparib] (first compound max 1 µM, 7x7, partner max 10 µM) ?
Reply: 0.319

Query: Which combination Emax value belongs to C[C@@H](c1ccc2nccn2c1)n1nnc2ncc(-c3cnn(C)c3)nc21 [Savolitinib] + CN(CC[C@H](CSC1=CC=CC=C1)NC2=C(C=C(C=C2)S(=O)(=O)NC(=O)C3=CC=C(C=C3)N4CCC(CC4)[C@H](C5=CC=CC=C5C6=CC=C(C=C6)Cl)O)S(=O)(=O)C(F)(F)F)CCO [AZD4320] (first compound max 1 µM, 7x7, partner max 1 µM) ?
Reply: 0.125

Now for a further compound.
Query: Which combination Emax value belongs to Cc1cc2ncnn2cc1Nc1ncc2c(n1)n(C1CCOCC1)c(=O)n2C [AZD7648] + C=CCn1c(=O)c2cnc(Nc3ccc(N4CCN(C)CC4)cc3)nc2n1-c1cccc(C(C)(C)O)n1 [AZD1775] (first compound max 10 µM, partner max 1 µM) ?
Reply: 0.613
